Data credit: PubChem BioAssay (NCI)

- System: SW-620 colon
- test: NCI tumour cell line growth inhibition, 48 h; in the data active means GI50 below about 0.43 µM; inactive means the rest
Possible outcomes: active, inactive

{"columns": ["input_smiles", "class_assignment"],
 "data": [
  ["C=CC(=O)N1CC[C@@H](Oc2nc(Nc3ccc(N4CCC(N5CCN(C)CC5)CC4)cc3)c(C(N)=O)nc2CC)C1", "inactive"],
  ["Cc1nn(-c2ccccc2)c2ncc3c(c12)C(=O)N(Cc1ccccc1)C3=O", "inactive"],
  ["N#Cc1ccccc1C#C/C=C\\C#Cc1cnccn1", "inactive"],
  ["COc1c(C)cnc(Cn2cnc3c(Cl)nc(N)nc32)c1C", "active"],
  ["Cc1nc2cc(NC(=O)CN3CCN(CCN4C(=O)c5cccc6cccc(c56)C4=O)CC3)ccc2s1", "inactive"]
]}

---

- Tested on: SK-MEL-5 melanoma
- test: NCI tumour cell line growth inhibition, 48 h
As shown below, each of these compounds has a reported log10 of TGI value.
parameter: log10 of TGI (log10 of the value in µM)

{"columns": ["compound", "log10 of TGI"],
 "data": [
  ["COC(=O)C(I(OS(=O)(=O)c1ccc(C)cc1)c1ccccc1)=P(c1ccccc1)(c1ccccc1)c1ccccc1", 1.42],
  ["Oc1c(Br)cc(Br)c2cccnc12", 0.72],
  ["CCS(=O)(=O)Nc1ccc(Oc2ccc(F)cc2F)c(-c2cn(C)c(=O)c3[nH]ccc23)c1", 0.86],
  ["Nc1n[nH]c(=O)c2c1c(Br)cn2C1OC(CO)C(O)C1O (stereo unspecified)", 1.66],
  ["C=CC(C)(C)c1cc([C@@H]2COc3cc(O)ccc3C2=O)c(O)c(OC)c1OC", 1.36],
  ["CCN(CC)CCC(CNc1c2ccc(Cl)cc2nc2ccc(OC)cc12)c1ccccc1 (stereo unspecified)", 0.49],
  ["Cc1ccc(-n2cc(-c3ccc(Cl)cc3)c3c(NNC(=S)NCc4ccccc4)ncnc32)cc1", 1.29],
  ["CNCc1ccc(C)c(NC(=O)c2ccc(Nc3nc(-c4ccccc4)c4ccccc4n3)cc2)c1", 0.49],
  ["COc1ccc(/C=C(\\NC(=O)c2ccccc2)c2nc3ccccc3[nH]2)cc1", 1.46],
  ["Fc1ccccc1N=c1oc2ccc(Br)cc2cc1-c1nc2ccccc2[nH]1", 1.55],
  ["COc1ccc(/C(C)=C(\\c2ccc(Cl)cc2)c2ccc(OCCN3CCCCC3)cc2)cc1F", 0.71],
  ["O=C(/C=C/CN1CCCCC1)Nc1cc2c(Nc3ccc(F)c(Cl)c3F)ncnc2cc1OCCOC(F)F", 0.49]
]}

---

- Test system: MDA-MB-435
- test: NCI tumour cell line growth inhibition, 48 h
The reader will find reported TGI values listed item by item below.
parameter: TGI

{"columns": ["molecule", "data_value"],
 "data": [
  ["Cn1c(N)cc(=O)nc1N", "> 100 µM"],
  ["C/C(=C1/N=C(c2ccccc2)OC1=O)c1cccs1", "> 100 µM"],
  ["CC1(C)CC(=O)C2=C(C1)OC1=C(CC(C)(C)CC1=O)C2c1ccccc1Cl (stereo not drawn)", "> 100 µM"],
  ["COc1cc2c(c(OC)c1OC)-c1c(c3ccc([N+](=O)[O-])cc3c(=O)n1CCCN=[N+]=[N-])C2=O", "> 100 µM"],
  ["COc1cc(C2c3cc4c(c(O)c3C(=O)C3CCC(=O)N32)OCO4)cc(OC)c1OC (stereo not drawn)", "58.9 µM"],
  ["O=C1CSC(c2ccc(Cl)cc2)N1c1ccc(-n2c(-c3ccccc3)nc3ccccc3c2=O)cc1 (stereo not drawn)", "> 100 µM"],
  ["Cc1nc2cc(NC(=O)CN3CCN(CCN4C(=O)c5cccc6cccc(c56)C4=O)CC3)ccc2s1", "19.4 µM"],
  ["CCOc1c(OC)cc(CNNc2nccs2)cc1OC", "> 100 µM"],
  ["CCO/C=N/C1=C(C#N)C(c2ccc(OC)c(OC)c2)c2c(-c3ccccc3)nn(-c3ccccc3)c2O1 (stereo not drawn)", "33.1 µM"],
  ["CNCc1ccc(C)c(NC(=O)c2ccc(Nc3nc(-c4ccccc4)c4ccccc4n3)cc2)c1", "3.22 µM"],
  ["O=C(/C=C/CN1CCCCC1)Nc1cc2c(Nc3ccc(F)c(Cl)c3F)ncnc2cc1OCCOC(F)F", "5.81 µM"],
  ["COc1ccc(/C=C2\\CN(Cc3cn(CCCNc4ccnc5cc(Cl)ccc45)nn3)C/C(=C\\c3ccc(OC)cc3)C2=O)cc1", "3.02 µM"],
  ["COC(=O)c1cc2c([nH]c3ccccc32)c(-c2nc3cc(N(S(=O)(=O)c4ccc(C)cc4)S(=O)(=O)c4ccc(C)cc4)c(OC)cc3cc2CO)n1", "> 100 µM"],
  ["O=C1c2ccccc2C(=O)c2c1c1cc(O)ccc1n2Cc1ccc(Cl)cc1Cl", "27.8 µM"],
  ["CCN(CC)CCC(CNc1c2ccc(Cl)cc2nc2ccc(OC)cc12)c1ccccc1 (stereo not drawn)", "3.09 µM"],
  ["COc1cc(C2C3=C(COC3=O)N(CCO)c3cc4c(cc32)CCC4)cc(OC)c1OC (stereo not drawn)", "0.187 µM"],
  ["CCCCCCCCCCCCOC1C(C(COC2OC(C(O)CO)C3OC(C)(C)OC23)OC(=O)Nc2ccc([N+](=O)[O-])cc2)OC2OC(C)(C)OC21 (stereo not drawn)", "3.68 µM"],
  ["COc1cc2c(cc1Nc1nc(Nc3ccsc3C(N)=O)c3cc[nH]c3n1)N(C(=O)CN(C)C)CCC2", "0.489 µM"]
]}
